Target: NLpoly 11S (Oplophorus gracilirostris, UniProt Q9GV45, A31E/A60N/A81I/D135N/F58L/F95D/G184S/G42A/G62A/G78A/G94A/G98A/H120P/I103V/I117V/I134L/K70R/L176M/L26M/L54V/L73R/L99Q/M102E/N171T/P142E/Q151K/Q38E/Q45L/T27V/V71I/Y165I)
Sequence (Q9GV45 26-184 with the stated changes limits assumed): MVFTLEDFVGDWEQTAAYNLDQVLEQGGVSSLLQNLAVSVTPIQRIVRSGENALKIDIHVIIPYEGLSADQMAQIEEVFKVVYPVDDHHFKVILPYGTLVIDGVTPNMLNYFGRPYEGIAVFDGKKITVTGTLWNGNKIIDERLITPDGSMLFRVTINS
Experiment: biochemical
Type: binding
ENDPOINT_LABEL: log10 of Kd (log10 of the value in nM)
Plainly stated, the numbers are log10 of Kd given in nM.

Per the record, Ac-VEGYRLFEKEL-NH2 [array2.102, VEGYRLFEKEL] has log10 of Kd of 3.76

Form: substance = Ac-VEGYRLFQKEL-NH2 [array2.93, VEGYRLFQKEL] ; log10 of Kd = 3.23

Quick note, log10 of Kd for Ac-VEGYRLFQQIL-NH2 [array2.94, VEGYRLFQQIL] landed at 3.97

Value of measured log10 of Kd for the entry Ac-VTGYRLFKQEL-NH2 [array2.33, VTGYRLFKQEL] : 3.29

Recorded log10 of Kd (substance Ac-VTGYRLFEKIL-NH2 [array2.46, VTGYRLFEKIL] ): 3.28

Short answer for Ac-VTGYRLFKKAL-NH2 [array2.29, VTGYRLFKKAL] : log10 of Kd was 2.44

# substance Ac-VTGYRLFKKES-NH2 [array2.3, VTGYRLFKKES] ; its log10 of Kd = 2.89

Just so you know, measured log10 of Kd for Ac-VTGYRLFEKEL-NH2 [array2.48, VTGYRLFEKEL] came out at 3.39

Lookup result for Ac-VTGYRLFKEIS-NH2 [array2.7, VTGYRLFKEIS] ; measured log10 of Kd: 3.65

Just so you know, measured log10 of Kd for Ac-VTGYRLFKKAS-NH2 [array2.2, VTGYRLFKKAS] came out at 2.38

In plain terms, Ac-VEGYRLFKKAS-NH2 [array2.56, VEGYRLFKKAS] has a documented log10 of Kd of 2.81

---

Target: NLpoly 11S (Oplophorus gracilirostris, UniProt Q9GV45, A31E/A60N/A81I/D135N/F58L/F95D/G184S/G42A/G62A/G78A/G94A/G98A/H120P/I103V/I117V/I134L/K70R/L176M/L26M/L54V/L73R/L99Q/M102E/N171T/P142E/Q151K/Q38E/Q45L/T27V/V71I/Y165I)
Assay: biochemical
Assay type: binding
pKd: −log10 of the molar value.
Label rule, in plain words: pKd of 4 and up is 1.0, under 4 is 0.0.

Reported pKd reaches at least 4 for Ac-VTGYRLFEKAS-NH2 [array2.20, VTGYRLFEKAS] ?
1.0

Threshold query (pKd >= 4) on Ac-VTGYRLFQKAL-NH2 [array2.38, VTGYRLFQKAL]
1.0

Please check the record Ac-VTGYRLFKKEL-NH2 [array2.30, VTGYRLFKKEL] and state if its pKd is at or above 4.
1.0

Does the substance Ac-VEGYRLFEQES-NH2 [array2.78, VEGYRLFEQES] have recorded pKd that is 4 or more?
0.0

pKd >= 4 for Ac-VTGYRLFKEES-NH2 [array2.9, VTGYRLFKEES] ?
1.0

---

Biological target: NLpoly 11S (Oplophorus gracilirostris, UniProt Q9GV45, A31E/A60N/A81I/D135N/F58L/F95D/G184S/G42A/G62A/G78A/G94A/G98A/H120P/I103V/I117V/I134L/K70R/L176M/L26M/L54V/L73R/L99Q/M102E/N171T/P142E/Q151K/Q38E/Q45L/T27V/V71I/Y165I)
Assay: biochemical
Assay type: binding
For each record, write down the corresponding Kd.
Kindly provide the numeric value in µM only, without the unit symbol.

Data point: Ac-VTGYRLFKEAS-NH2 [array2.8, VTGYRLFKEAS] ; Kd = 2.57

Briefly, Kd measured for Ac-VTGYRLFEQES-NH2 [array2.24, VTGYRLFEQES] : 7.83

So for Ac-VTGYRLFEEEL-NH2 [array2.54, VTGYRLFEEEL] , the logged Kd turned out to be 68.3

Per the record, Ac-VEGYRLFQQEL-NH2 [array2.96, VEGYRLFQQEL] has Kd of 99.4

Kd for Ac-VTGYRLFQKAS-NH2 [array2.11, VTGYRLFQKAS] is 0.748

Entry under test: Ac-VEGYRLFQQIS-NH2 [array2.67, VEGYRLFQQIS] . Its Kd was 8.14

Lab note: Ac-VEGYRLFEKAL-NH2 [array2.101, VEGYRLFEKAL] gave Kd of 12.6

So for Ac-VTGYRLFQKEL-NH2 [array2.39, VTGYRLFQKEL] , the logged Kd turned out to be 2.48

Kd reported for this substance Ac-VTGYRLFQQEL-NH2 [array2.42, VTGYRLFQQEL] : 19

GET /value?item= Ac-VEGYRLFQEAL-NH2 [array2.98, VEGYRLFQEAL] &field=Kd returns 99.9

For this substance ( Ac-VTGYRLFKQES-NH2 [array2.6, VTGYRLFKQES] ), measured Kd is 1.35

Query Ac-VTGYRLFKEEL-NH2 [array2.36, VTGYRLFKEEL] yields Kd of 7.78

Reported Kd for Ac-VTGYRLFKEIL-NH2 [array2.34, VTGYRLFKEIL] was 4.41

The recorded Kd for entry Ac-VEGYRLFKKIL-NH2 [array2.82, VEGYRLFKKIL] equals 0.563

Input Ac-VTGYRLFKQIL-NH2 [array2.31, VTGYRLFKQIL] . Output Kd: 2.99

Recorded result, Ac-VEGYRLFKEIS-NH2 [array2.61, VEGYRLFKEIS] , Kd: 14.4

The substance listed as Ac-VEGYRLFKQAS-NH2 [array2.59, VEGYRLFKQAS] has a reported Kd of 2.09

The substance listed as Ac-VEGYRLFKQIS-NH2 [array2.58, VEGYRLFKQIS] shows Kd equal to 2.09

Kd for Ac-VTGYRLFEKAL-NH2 [array2.47, VTGYRLFEKAL] is 1.81

Kd in this record for Ac-VTGYRLFEQEL-NH2 [array2.51, VTGYRLFEQEL] : 85

Reported Kd of Ac-VEGYRLFKQAL-NH2 [array2.86, VEGYRLFKQAL] : 2.27

The reported value for Ac-VEGYRLFQKIL-NH2 [array2.91, VEGYRLFQKIL] in terms of Kd is 2.08

The reported value for Ac-VEGYRLFKEIL-NH2 [array2.88, VEGYRLFKEIL] in terms of Kd is 17.8

Record Ac-VEGYRLFKKES-NH2 [array2.57, VEGYRLFKKES] . Reported Kd: 0.891

// Ac-VEGYRLFEQIS-NH2 [array2.76, VEGYRLFEQIS] : Kd value = 52.8

get_value(item= Ac-VEGYRLFEKIS-NH2 [array2.73, VEGYRLFEKIS] , readout=Kd) returns 2.15

Please fill in: Kd reported for Ac-VEGYRLFKEAL-NH2 [array2.89, VEGYRLFKEAL] = 42.4

Record Ac-VTGYRLFEQIS-NH2 [array2.22, VTGYRLFEQIS] , field Kd: 10.8

# Kd (substance: Ac-VTGYRLFQEIS-NH2 [array2.16, VTGYRLFQEIS] ) is 2.56

Just so you know, measured Kd for Ac-VTGYRLFQQIS-NH2 [array2.13, VTGYRLFQQIS] came out at 0.876

Looking up Ac-VEGYRLFKEAS-NH2 [array2.62, VEGYRLFKEAS] , I see its Kd listed as 22.1

Given item Ac-VTGYRLFQEEL-NH2 [array2.45, VTGYRLFQEEL] , the value recorded as its Kd is 35.4

The substance listed as Ac-VTGYRLFKEAL-NH2 [array2.35, VTGYRLFKEAL] shows Kd equal to 5.15

The value of Kd measured for the substance Ac-VEGYRLFEKAS-NH2 [array2.74, VEGYRLFEKAS] turned out to be 4.14

get_value(item= Ac-VEGYRLFEQAS-NH2 [array2.77, VEGYRLFEQAS] , readout=Kd) returns 48.3

The reported value for Ac-VEGYRLFEQAL-NH2 [array2.104, VEGYRLFEQAL] in terms of Kd is 336

// Kd lookup, substance = Ac-VTGYRLFKQAS-NH2 [array2.5, VTGYRLFKQAS] , result: 1.95

The substance listed as Ac-VTGYRLFQQAS-NH2 [array2.14, VTGYRLFQQAS] shows Kd equal to 1.11

Notebook: Ac-VTGYRLFEEIL-NH2 [array2.52, VTGYRLFEEIL] , Kd read as 104

Sure, the documented Kd for Ac-VTGYRLFEQAS-NH2 [array2.23, VTGYRLFEQAS] is 4.17

Recorded result, Ac-VTGYRLFKKIL-NH2 [array2.28, VTGYRLFKKIL] , Kd: 0.0766

Recorded Kd (substance Ac-VTGYRLFKKIS-NH2 [array2.1, VTGYRLFKKIS] ): 0.0133

// recorded Kd for Ac-VEGYRLFEEAS-NH2 [array2.80, VEGYRLFEEAS] : 1420

Ac-VTGYRLFQEAL-NH2 [array2.44, VTGYRLFQEAL] yielded Kd of 16

Form field Kd, entry Ac-VEGYRLFEKES-NH2 [array2.75, VEGYRLFEKES] : 2.97
